Reference source for all entries: patent US20070276125A1

Subject Of Test: peroxidase-anti-peroxidase (PAP) immune complex (preformed immune complex of peroxidase and anti-peroxidase IgG)
Assay Details: reverse ELISA, competition: pre-incubated with rabbit PAP, then MBP-coated plate (competitor: MBP); lower = more inhibition
Positions of bridges follow the written chain, without caps; N, C: chain ends. No end group written: not given here.
Experimental Endpoint: OD 405 nm (OD)
Numbers only, in OD.

Binder: RCARHLGELVWCT (disulfide 2-12 (inferred)) [… peptide (SEQ ID NO:5)]
OD 405 nm [OD]: 0.569

Each binder below has a reported value. Please supply its OD 405 nm.
1. DCAWHLGELAACT (cyclized by a disulfide bond between the two cysteine residues) [… peptide (SEQ ID NO:42)]
2. DCARHLGELVWCT (disulfide 2-12 (inferred)) [… peptide (SEQ ID NO:4)]
3. PCARHLGELVWCT (disulfide 2-12 (inferred)) [… peptide (SEQ ID NO:41)]

Response given:
1. 0.706
2. 0.473
3. 0.489
